test system: LOX IMVI; assay: NCI tumour cell line growth inhibition, 48 h
Active and inactive are the calls of the source. Rule as the data show it: active = GI50 up to about 1.1 µM and inactive = higher.
Log the outcome using a class from active, inactive

Below are worked cases with known answers.
Cc1ccc(/C=N/Nc2ncccn2)s1 ... inactive
CC1=C(Cl)C=CP(=O)(Oc2ccccc2)C1 (stereo not given) ... inactive
Cc1cc2ncn(C3CCCO3)c2cc1C (stereo not given) ... inactive
COc1ccc(Sc2ccccc2[N+](=O)[O-])cc1 ... inactive
O=C1C2=Cc3ccccc3OC2(O)Oc2ccc(O)cc21 (stereo not given) ... inactive
Cn1cc2ccccc2c1-c1nc(F)nc(Nc2ccc(N)cc2)n1 ... inactive
C[C@]12CC[C@H](O)CC1=CC[C@@H]1[C@@H]2CC[C@]2(C)NC(=O)/C(=C\c3ccccc3)C[C@@H]12 ... inactive
Cc1c(Cl)ccc2c1NC(=O)C2(O)CC(=O)c1ccc2ccccc2c1 (stereo not given) ... inactive
CCN(C)c1nc(N(C)CC)c2nc(N(C)CC)nc(N(C)CC)c2n1 ... inactive

Now consider the entry below.
Enquiry: Per the assay record, what outcome was assigned to COC1/C=C/C(C)C(C(C)C(OC)C(C)CCC(=O)C(C)C(CCC(=O)O)OC)OC(=O)/C=C/C=C(\C)CC(OC)CC2=CC(=O)O[C@@H](C(C)C(OC)CC(OC)/C=C/C(C)C(OC)C1)[C@H]2O (stereo not given in full) ?
Return: active
